Counter-ions that a name gives are not always drawn.
Property Measured: melting point

Req: Requested read-out: melting point. Entry: CNC(=O)OC[C@@H](C)Nc1ncc(Oc2cc(Cl)c(OC)cc2C(C)C)c(N)n1 (stereo in doubt)
Resp: 63.5 to 69.4 °C

Req: Also need COc1cc(C(C)C)c(Oc2cnc(N)nc2N)cc1Cl (as salt: trifluoroacetic acid salt) , thanks.
Resp: 135 to 138.5 °C

Req: Also need COc1cc(C(C)C)c(Oc2cnc(N[C@H](C)CO)nc2N)cc1Cl (as salt: hydrochloride) , thanks.
Resp: 111.4 to 116.9 °C

Req: Also need COc1cc(Cc2cnc(NCCO)nc2N)c(C(C)C)cc1OC (as salt: HCl) , thanks.
Resp: > 300 °C
